These entries and their values trace back to paper PMC11546339.

Assay: Pharmacokinetic study in mice (plasma and brain)
Format: in vivo
Settings: male, C57BL/6, mouse, plasma, ip, 3 mg/kg i.p., 0-60 min, read-out: AUCbld (plasma) (converted)
Procedure: To evaluate the amount of CycloAnt in mouse brain, we performed a pharmacokinetic experiment in mice. Mice were given CycloAnt at 3 mg/kg i.p.; blood was collected at 0, 15, 30, and 60 min post-injection. […] The supernatants of the blood and brain samples were collected and analyzed by LC-MS/MS. Pharmacokinetic study. […] The supernatant was collected and analyzed by LC-MS/MS. […] Pharmacokinetics. […] The supernatants were collected from the blood and brain samples and analyzed by LC-MS/MS.
Where a SMILES comes first, the peptide text is derived from it. Bridges are numbered along the chain shown (N, C = ends). [ ]: non-standard residue; d: D form. 2Abz = Nc1ccccc1C(=O)O; Dap = NC[C@H](N)C(=O)O
Measure name: AUC (ng·h/mL)
The figure you give is taken to be in ng·h/mL; do not add the unit.

Q: Quick one: AUC of C[C@@H](O)[C@@H]1NC(=O)[C@H](CNC(=O)c2ccccc2N)NC(=O)[C@H](NC(=O)[C@@H](N)Cc2ccc(O)cc2)CCCCNC(=O)CNC1=O [CycloAnt] (H-Y[dK][Dap](2Abz)TG; lactam 2-C) ?
A: 173
